This collection of values is drawn from the supplement of paper PMC12632987.

ASSAY SYSTEM: MAP1LC3A, Q9H492
TEST SUMMARY: median log2 fold change of GCK-ALFA target abundance (FLAG IP / Myc IP barcode read proportion) (log2 ratio); each designed protein is fused to an ALFA-tag nanobody in HEK293 cells to bring the named protein to FLAG-tagged glucokinase (GCK); Myc marks an untargeted standard; higher = target protein stabilised (more abundant)
EXPERIMENTAL CONDITIONS: target protein: 3xFLAG-MCP-GCK-ALFA reporter; HEK293 landing pad (RPLP)
The full ranking holds about 2,300 sequences; the median of “median log2 fold change of GCK-ALFA target abundance (FLAG IP / Myc IP barcode read proportion)” is about 0.095, and the lowest 2% start at about -0.47. Shown is part of a subset that was picked to be rich in the lowest values.
MEASURED PROPERTY: median log2 fold change

Prompt: Can you share its median log2 fold change? I mean this binder: LC3A_132_247 (protein) SEEELEKALEELKEILEKIVELLKAGKDPLPQIVKLEELAREIAKKLSLEETEKLVDEAIEYAEELFEKELDPNDEEARRTLDIIEMSLEGVLIEKELES
Completion: -0.371

Prompt: Can you share its median log2 fold change? I mean this binder: LC3A_free_46_2348 (protein) YKAEILIDLLAKDKETLEKAVKEIVEEAKKIAEKYNLELEIKVKIEKLEDGSYYAEIEITLKGETEEDLQKAVNELINKIEEIAKKYGVAAIISYEIIKE
Completion: -0.204

Prompt: Can you share its median log2 fold change? I mean this binder: LC3A_132_248 (protein) SEEELKEALEELKEILEKIVEALKNGEDPLPLIVELEEKALEIAEKLSLEETEELIDEAKEYAEELFEEELDPNDEEARRTLDIIEMLLDGVLIEKELKS
Completion: -0.698

Prompt: Can you share its median log2 fold change? I mean this binder: LC3A_132_246 (protein) SEEEYKKALAELKEIIDKIVELLKEGKDPLPAIVELEEKAREIAEKLSLEETEKLVEETIEYAEKRFEEELDPNDEEARRTLDIIEMLLEGVLIEKELRS
Completion: -0.415
